Source of measurements: the supplement of paper PMC10065799

System: c-Abl (mouse)
Experiment: phosphorylation enrichment, bacterial display (enrichment ratio); higher = better substrate or ligand; peptides without Tyr show the background;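 also: 11-residue human phosphosite peptides and single-mutation variants displayed on the E. coli surface, counted by deep sequencing, each peptide's frequency after selection divided by its frequency in the unselected input library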;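 also: frequency after pTyr selection over input frequency; kinase dosed for 20-30% of maximal phosphorylation in three min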
Category | rule: reported phosphorylation enrichment within range, see one = under 0.6, two = from 0.6 up to 0.8, three = 0.8 and over

> print(dat)
                        sequence.content  group
 1          YRDMDYRSYPH [RBM10_Y41_R46H]    one
 2  IIGNGYFFHVF [MYBPC3_Y1135_R1138H_YF]    two
 3        NFRTIYVNANE [KCNH2_Y475_T474I]    one
 4     LGIDRYHAIVF [NPSR1_Y147_S143G_YF]  three
 5          MGGSVYFSFPD [HIKESHI_Y55_YF]  three
 6         VEEDTYTMPST [PTK2_Y407_D402V]  three
 7          VDGSLYETHPQ [HK1_Y417_K418E]    one
 8             VFGEEYEEQPR [ZMYM2_Y1033]    two
 9                VTAALYGRLYE [BTD_Y536]  three
10        FIGCIYLYLTK [GARS1_Y414_R412C]    two
11               ILCTVYAFKTR [GRM3_Y754]    two
12       LERYIYNRQEF [HLA-DPB1_Y59_E62Q]    one

---

Target: Jak2 (UniProt O60674)
Sequence (O60674 whole entry, looked up): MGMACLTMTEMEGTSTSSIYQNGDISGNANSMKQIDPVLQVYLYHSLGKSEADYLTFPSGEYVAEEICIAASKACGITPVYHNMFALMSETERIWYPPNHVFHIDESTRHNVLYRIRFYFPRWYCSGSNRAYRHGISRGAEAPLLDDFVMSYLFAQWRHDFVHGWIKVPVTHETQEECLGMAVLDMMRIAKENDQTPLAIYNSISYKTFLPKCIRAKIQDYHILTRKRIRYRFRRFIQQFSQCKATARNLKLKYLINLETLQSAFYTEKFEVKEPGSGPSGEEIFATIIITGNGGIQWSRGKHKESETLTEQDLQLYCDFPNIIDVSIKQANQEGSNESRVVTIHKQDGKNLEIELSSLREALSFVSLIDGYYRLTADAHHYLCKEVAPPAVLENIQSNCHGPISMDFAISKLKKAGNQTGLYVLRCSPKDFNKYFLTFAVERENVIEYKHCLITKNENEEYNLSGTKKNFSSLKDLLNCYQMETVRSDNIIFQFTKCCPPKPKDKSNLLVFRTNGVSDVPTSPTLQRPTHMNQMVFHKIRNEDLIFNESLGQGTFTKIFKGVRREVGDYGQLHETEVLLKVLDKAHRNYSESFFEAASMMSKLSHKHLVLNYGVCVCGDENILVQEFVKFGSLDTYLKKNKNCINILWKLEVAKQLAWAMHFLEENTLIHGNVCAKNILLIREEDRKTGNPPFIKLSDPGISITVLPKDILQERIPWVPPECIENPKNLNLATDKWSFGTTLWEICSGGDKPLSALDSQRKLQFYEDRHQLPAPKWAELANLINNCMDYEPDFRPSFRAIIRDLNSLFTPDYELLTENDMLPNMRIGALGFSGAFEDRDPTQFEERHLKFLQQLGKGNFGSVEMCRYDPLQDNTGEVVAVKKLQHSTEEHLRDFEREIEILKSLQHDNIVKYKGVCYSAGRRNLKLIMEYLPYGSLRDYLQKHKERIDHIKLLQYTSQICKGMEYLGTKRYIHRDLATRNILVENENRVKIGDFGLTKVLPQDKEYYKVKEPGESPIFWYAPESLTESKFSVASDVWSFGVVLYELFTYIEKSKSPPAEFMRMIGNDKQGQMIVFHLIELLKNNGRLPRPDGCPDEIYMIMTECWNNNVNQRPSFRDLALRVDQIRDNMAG
Assay: phosphorylation enrichment, bacterial display (enrichment ratio); higher = better substrate or ligand; peptides without Tyr show the background
Given measured phosphorylation enrichment, output class 1 if it is greater than or equal to 1 and class 0 if not.

> print(dat)
                    sequence.content    group
 1    VILENYGADID [DNAH5_Y596_L591V]  class 1
 2      IHTDAYVRAMT [RPE65_Y89_R85H]  class 0
 3         PKFHSYVSLPF [PLXNA2_Y293]  class 1
 4           SKNYTYIWWLN [PSG4_Y271]  class 1
 5    KVMANYVYKAG [MAML2_Y513_M514V]  class 0
 6  CATIHYNFMCN [TP53_Y234_T230A_YF]  class 0
 7     FSLPAFMDRRD [COX4I1_Y38_Y38F]  class 0
 8           LYIDSYEKDVA [PGM1_Y521]  class 1
 9       IMWDSYTTNKV [GNB3_Y85_V81M]  class 0
10         SMAKYYASEIA [ACADSB_Y373]  class 0
11          RLLRGHDQYAY [HLA-B_Y137]  class 0
12   LERYIYNRQEF [HLA-DPB1_Y59_E62Q]  class 0
13            IHKEFYDGLFP [BCR_Y561]  class 1
14         SFSGEYGGGGG [ZG16_Y30_YF]  class 0
15  YGGLRYGYGGL [KRTAP20-2_Y13_V17G]  class 0
16        QRAADYFSQQM [GBP6_Y333_YF]  class 0

---

The sequences listed here are annotated with their phosphorylation enrichment.
Molecular target: FGFR1 (UniProt P11362)
Sequence (P11362 whole entry, looked up): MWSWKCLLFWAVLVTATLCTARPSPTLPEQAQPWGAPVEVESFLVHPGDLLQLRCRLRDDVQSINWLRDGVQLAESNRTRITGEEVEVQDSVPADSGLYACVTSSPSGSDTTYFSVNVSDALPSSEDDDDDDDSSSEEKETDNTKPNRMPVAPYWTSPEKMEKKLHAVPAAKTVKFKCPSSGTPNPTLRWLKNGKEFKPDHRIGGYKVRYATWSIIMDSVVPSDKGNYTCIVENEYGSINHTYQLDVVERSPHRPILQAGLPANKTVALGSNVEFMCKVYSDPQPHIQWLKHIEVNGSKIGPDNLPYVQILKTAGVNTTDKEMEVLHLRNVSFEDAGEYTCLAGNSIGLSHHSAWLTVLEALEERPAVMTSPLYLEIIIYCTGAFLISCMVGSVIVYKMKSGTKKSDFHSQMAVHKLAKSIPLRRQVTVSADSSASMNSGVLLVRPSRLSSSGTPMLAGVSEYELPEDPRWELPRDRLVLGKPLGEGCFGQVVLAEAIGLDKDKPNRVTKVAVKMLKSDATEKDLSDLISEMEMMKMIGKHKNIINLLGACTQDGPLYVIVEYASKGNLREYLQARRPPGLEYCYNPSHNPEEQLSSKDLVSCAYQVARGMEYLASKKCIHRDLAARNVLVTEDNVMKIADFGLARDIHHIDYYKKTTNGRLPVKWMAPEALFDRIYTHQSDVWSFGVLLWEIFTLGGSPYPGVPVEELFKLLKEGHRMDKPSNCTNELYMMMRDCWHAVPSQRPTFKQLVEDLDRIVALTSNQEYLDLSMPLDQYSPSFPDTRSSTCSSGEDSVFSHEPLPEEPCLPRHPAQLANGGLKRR
Test: phosphorylation enrichment, bacterial display (enrichment ratio); higher = better substrate or ligand; peptides without Tyr show the background
observation.type: phosphorylation enrichment

> print(dat)
                        sequence.content  result
1       ANSSFHSTRSA [NUMA1_Y1836_Y1836H]   0.551
2         RLSELYLRRNP [CFAP410_Y68_R73P]   0.381
3          LREKVYVSLEA [RXRA_Y397_A398V]   0.837
4  PVDTFYDSTRG [DYNC2H1_Y2231_M2227V_YF]   0.423
5           SSVAGYACLAY [MVD_Y131_A128V]   0.495
6          GFEEAYSVFKK [PAFAH1B1_Y28_YF]   0.423

---

Test system: c-Abl (mouse)
Assay: phosphorylation enrichment, bacterial display (enrichment ratio); higher = better substrate or ligand; peptides without Tyr show the background
observation.type: phosphorylation enrichment

> print(dat)
                      sequence.content  result
 1    GQKVAYGGTED [ALDH3A1_Y305_G309E]   0.577
 2               VLPIDYYFPPQ [AR_Y552]    1.06
 3           QTEAQYRFIYM [PTPN11_Y511]     1.5
 4       YCRITYDIFPF [INTS13_Y67_M66T]    1.18
 5         FGLQAYTEVKT [ALDH2_Y502_YF]   0.727
 6            HFNLTYRILSF [MMP23B_Y95]    1.47
 7     PELINYHQHFS [BTK_Y361_N365Y_YF]   0.711
 8      QDLTDYLMKIL [ACTA2_Y190_R185Q]    1.13
 9       VFPATYHPDHW [EFCAB12_Y544_YF]   0.604
10       ILDEAYVMAIV [EGFR_Y764_S768I]    0.84
11       CTTIDYNYMCN [TP53_Y234_H233D]   0.682
12        LLILEYAKYGS [RET_Y806_V804L]    1.02
13  GFEEAYSVSKK [PAFAH1B1_Y28_F31S_YF]   0.464
14              IVRSLYEDLED [VHL_Y185]    0.68
15       NCLRVYVAGRF [CRB1_Y711_E710V]    1.03
16             NDQPDYDSVAS [GIT2_Y392]   0.849
17      EGLRRYLENGK [HLA-A_Y195_W191G]   0.419
18   MAFDRYAAICS [OR8H2_Y123_H120Y_YF]    0.95

---

Tested on: c-Src
Assay: phosphorylation enrichment, bacterial display (enrichment ratio); higher = better substrate or ligand; peptides without Tyr show the background
observation.type: phosphorylation enrichment

> print(dat)
                    sequence.content            observation.type  result
 1            GVPLGYPIKAP [ELN_Y206]  phosphorylation enrichment   0.427
 2     LTMAPYSSVSV [FAM81A_Y24_L29V]  phosphorylation enrichment    1.07
 3    GIYKDYYRYNF [PLA2G2D_Y85_S80G]  phosphorylation enrichment    4.78
 4      VDGSVYELHPS [GCK_Y413_K414E]  phosphorylation enrichment    9.02
 5    NHFKRYNLCAE [PTEN_Y68_I67R_YF]  phosphorylation enrichment   0.538
 6   VTAALYGCLFE [BTD_Y536_R538C_YF]  phosphorylation enrichment    4.03
 7          IDQDKYAVRFI [FLNA_Y2388]  phosphorylation enrichment   0.393
 8  ANSSFHSTRSA [NUMA1_Y1836_Y1836H]  phosphorylation enrichment   0.602
 9            DKITQYVEEVK [STX2_Y49]  phosphorylation enrichment   0.425
10      HEGKIYEFNQV [ZNF665_Y162_YF]  phosphorylation enrichment    4.38

---

Target: EPHB2 (UniProt P29323)
Sequence (P29323 whole entry, looked up): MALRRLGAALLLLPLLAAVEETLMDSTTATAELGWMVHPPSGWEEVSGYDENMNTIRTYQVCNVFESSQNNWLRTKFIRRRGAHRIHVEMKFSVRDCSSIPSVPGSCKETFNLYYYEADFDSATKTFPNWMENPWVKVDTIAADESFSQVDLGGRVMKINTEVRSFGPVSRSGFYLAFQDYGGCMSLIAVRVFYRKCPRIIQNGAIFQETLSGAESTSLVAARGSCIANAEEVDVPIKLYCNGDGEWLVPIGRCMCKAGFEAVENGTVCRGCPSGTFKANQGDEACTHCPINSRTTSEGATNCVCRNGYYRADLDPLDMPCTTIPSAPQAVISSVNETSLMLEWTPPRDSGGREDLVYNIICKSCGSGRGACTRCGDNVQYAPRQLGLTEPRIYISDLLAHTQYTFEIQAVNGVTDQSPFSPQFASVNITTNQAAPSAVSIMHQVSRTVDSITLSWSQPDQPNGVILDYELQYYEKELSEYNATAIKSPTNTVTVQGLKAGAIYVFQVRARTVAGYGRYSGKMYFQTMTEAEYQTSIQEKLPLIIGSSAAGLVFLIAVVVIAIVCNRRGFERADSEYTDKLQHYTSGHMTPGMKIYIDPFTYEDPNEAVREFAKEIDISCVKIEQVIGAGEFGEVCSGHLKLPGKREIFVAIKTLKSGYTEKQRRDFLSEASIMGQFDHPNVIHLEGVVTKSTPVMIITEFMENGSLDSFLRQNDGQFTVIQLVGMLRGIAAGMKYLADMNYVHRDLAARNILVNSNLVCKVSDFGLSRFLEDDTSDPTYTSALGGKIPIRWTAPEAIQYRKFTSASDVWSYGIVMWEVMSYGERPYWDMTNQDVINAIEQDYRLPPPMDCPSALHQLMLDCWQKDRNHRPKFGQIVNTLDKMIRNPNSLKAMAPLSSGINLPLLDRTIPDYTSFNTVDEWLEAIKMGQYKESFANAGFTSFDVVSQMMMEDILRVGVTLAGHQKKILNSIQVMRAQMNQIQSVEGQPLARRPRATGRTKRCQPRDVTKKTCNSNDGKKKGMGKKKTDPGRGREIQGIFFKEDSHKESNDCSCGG
Assay: phosphorylation enrichment, bacterial display (enrichment ratio); higher = better substrate or ligand; peptides without Tyr show the background
observation.type: phosphorylation enrichment

> print(dat)
                      sequence.content     experimental.system  result
 1              ARGTRYRYVSQ [UCN3_Y95]  EPHB2 (UniProt P29323)   0.461
 2          FCVDCYKNFVA [FHL1_Y213_YF]  EPHB2 (UniProt P29323)   0.751
 3        FADPFYDFEIE [ZC3H18_Y372_YF]  EPHB2 (UniProt P29323)   0.687
 4          QRAADYFSQQM [GBP6_Y333_YF]  EPHB2 (UniProt P29323)    0.57
 5     SVCPDYDLCSI [SQSTM1_Y148_V153I]  EPHB2 (UniProt P29323)   0.914
 6    VRVQLYDPDFM [CYP4A22_Y100_Y104F]  EPHB2 (UniProt P29323)   0.631
 7       NKKYHYRELPV [ERN2_Y860_H858Y]  EPHB2 (UniProt P29323)   0.278
 8        SAVTGYRVNVI [FN1_Y937_D940N]  EPHB2 (UniProt P29323)   0.407
 9  DKEKWYPLGTS [PIK3C2G_Y1438_N1442T]  EPHB2 (UniProt P29323)   0.496
10   FHKALYTVRTF [PDE6C_Y266_S270T_YF]  EPHB2 (UniProt P29323)   0.529
11          CPYNLYAEQFS [HGD_Y40_L44F]  EPHB2 (UniProt P29323)    3.18
12    KQFWRYFPGNL [SLC25A4_Y112_A114P]  EPHB2 (UniProt P29323)   0.521
13           VFGEEYEEQPR [ZMYM2_Y1033]  EPHB2 (UniProt P29323)   0.767
14             SLRAHYDTPRS [DOK7_Y405]  EPHB2 (UniProt P29323)   0.351
15    DDFDLYGGEKF [PTPN11_Y66_Y62D_YF]  EPHB2 (UniProt P29323)   0.659
